// data source = PubChem BioAssay (NCI)

I'd appreciate it if you could supply growth values for the items below.
Tested on: EKVX NSCLC
Assay: NCI-60 one-dose screen, 48 h (100 = growth as untreated, 0 = no growth, -100 = all killed)
Conditions: 10 µM unless noted
The panel holds about 83,000 compounds, 20% with a hit somewhere; the sample as a whole holds those more often.
One number for each entry, in %.

Examples with answers:
O=C1C(=Nc2ccc(F)c(Cl)c2)c2cccc3cccc1c23 | 75.5
CC(=O)N1CCN(Cc2ccc3c(NNC(=O)c4cnccn4)nc4cc(F)ccc4n23)CC1 | 16.2
CC(C)C(C(=O)O)n1c(O)c(/C=C2/C=c3cc4c(cc3=NC2=O)OCO4)sc1=S (centres undefined) | 99.3
CN(C)CCn1c2ccccc2c2nc3cc(C(F)(F)F)ccc3nc21 | 64.3
C=CC[N+](C)(C)CCn1c2ccccc2c2nc3cc(C)c(C)cc3nc21 | 89.7

Here are 4 compounds. What values of growth were reported for them?
1. O=C(NN1C(=O)/C(=C/C=C/c2ccc([N+](=O)[O-])o2)SC1=S)c1cccc(O)c1
2. Brc1ccc(-c2n(Cc3ccc4ccccc4c3)c(-c3ccccc3)c(-c3ccccc3)[n+]2Cc2ccc3ccccc3c2)cc1
3. O=c1[nH]c2ccccc2cc1CSc1nccc(-c2ccc3ccccc3c2)n1
4. O=C(N/N=C/c1ccc(-c2ccc(O)cc2)o1)c1[nH]c2ccc(Br)cc2c1-c1ccccc1

Result:
1: -96.8; 2: -86.7; 3: 49.4; 4: 8.78

* * *

System: A498 renal
Test: NCI-60 one-dose screen, 48 h
Settings: 10 µM unless noted
This is part of a sample that, as a whole, favours compounds with a hit. Of some 83,000 tested, about 20% had one in any assay. Active and inactive are the calls of the source. Rule for the calls: active = growth percent below 10; inactive = the rest.
Field 'call' accepts active, inactive

Please review the entries below; each comes with its answer.
C(=C\c1cc(/C=C/c2ccccc2)c2ccccc2n1)/c1ccccc1 | inactive
COc1ccc(C(=O)/C=C/c2ccc(Cl)c(Cl)c2)cc1S(N)(=O)=O | inactive
O=C(/C=C/c1cccc(OCc2ccccc2)c1)c1nc2ccccc2[nH]1 | inactive
COc1ccc2[nH]cc(-c3cc(N)n4nc(-c5cn(C)c6ccccc56)cc4n3)c2c1 | active

Task: I would be grateful if you could indicate the recorded call for O=C1NC(=O)/C(=C/c2ccccc2OCc2cc3ccccc3nc2Cl)S1 .
Result: inactive

Task: I would be grateful if you could indicate the recorded call for COc1c(F)ccc(C(=O)Nc2ccc3nc(NC(=O)C4CCCN(S(=O)(=O)c5cccc(Br)c5)C4)sc3c2)c1F (configuration not stated) .
Result: inactive

Task: I would be grateful if you could indicate the recorded call for CN(C)c1ccnc(CNCCSC2(c3ccc(C(F)(F)F)cc3)c3ccccc3CCc3ccccc32)c1 .
Result: active

* * *

Test system: SK-MEL-28 melanoma
Test: NCI-60 one-dose screen, 48 h
Conditions: 10 µM unless noted
Compounds without any hit were thinned out: in the full panel of roughly 83,000, 20% have a hit. Calls of active or inactive are those of the source. How the source made its calls: active means growth percent below 10; inactive means the rest.
Field 'call' accepts Y (active), N (inactive)

Cc1ccccc1[C@H]1C(C(=O)c2ccc(Cl)cc2)C2(N[C@@H]1c1ccccc1)C(=O)Nc1ccccc12 (stereo not given in full) | Y

Task: I would be grateful if you could indicate the recorded call for Cc1cc(C)cc(NC(=O)Cn2cc(COn3nnc4ccccc43)nn2)c1 .
Result: N

Task: I would be grateful if you could indicate the recorded call for Cn1cc(-c2cc3nc(-c4c[nH]c5ccc(Cl)cc45)cc(N)n3n2)c2ccccc21 .
Result: Y

Task: I would be grateful if you could indicate the recorded call for COc1ccc(C(=O)/C=C/c2ccccc2Br)cc1S(N)(=O)=O .
Result: Y

Task: I would be grateful if you could indicate the recorded call for S=c1c2ccccc2nc2n1CCc1c-2[nH]c2ccccc12 .
Result: N

Task: I would be grateful if you could indicate the recorded call for Brc1ccc(-c2n(Cc3ccc4ccccc4c3)c(-c3ccccc3)c(-c3ccccc3)[n+]2Cc2ccc3ccccc3c2)cc1 .
Result: Y

Task: I would be grateful if you could indicate the recorded call for COc1ccc(-c2nnc3ccc(N/N=C/c4ccc(O)cc4)nn23)cc1 .
Result: N

Task: I would be grateful if you could indicate the recorded call for CC(C)c1ccc2c(N)c(C(=O)Nc3ccc(C(F)(F)F)cn3)sc2n1 .
Result: N

Task: I would be grateful if you could indicate the recorded call for CCCS(=O)(=O)N1CCCC(C(=O)Nc2nc3ccc(NC(=O)c4ccc(F)c(OC)c4F)cc3s2)C1 (stereo not given) .
Result: N

Task: I would be grateful if you could indicate the recorded call for CSc1ccccc1NC(=O)c1ccc2nnn(/C(C#N)=C/c3ccccn3)c2c1 .
Result: Y
